We begin with a simple list: items and their reported hIP1 GRPR EC50.
# Test system: human GRP receptor (human, UniProt P30550 1-384)
# Sequence (P30550 whole entry): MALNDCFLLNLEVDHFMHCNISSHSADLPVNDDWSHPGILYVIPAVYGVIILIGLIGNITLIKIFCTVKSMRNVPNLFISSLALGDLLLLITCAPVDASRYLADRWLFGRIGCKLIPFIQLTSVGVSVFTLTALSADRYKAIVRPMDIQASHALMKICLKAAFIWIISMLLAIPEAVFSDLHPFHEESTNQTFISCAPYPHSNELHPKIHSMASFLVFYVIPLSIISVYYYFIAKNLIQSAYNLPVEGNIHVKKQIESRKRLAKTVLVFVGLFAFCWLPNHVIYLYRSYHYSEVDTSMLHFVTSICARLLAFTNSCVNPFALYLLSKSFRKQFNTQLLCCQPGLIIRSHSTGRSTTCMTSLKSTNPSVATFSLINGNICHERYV
# Experiment description: cell-based or functional assay
Starred links: 1 amine or outer side, 2 acyl side, 3 side chain; linkers in the order of their positions; H or OH if unused. Non-standard residues stand in square brackets, D forms with d. *: point of attachment. Trp(7-F) = N[C@@H](Cc1c[nH]c2c(F)cccc12)C(=O)O; Trp(7-Me) = Cc1cccc2c(C[C@H](N)C(=O)O)c[nH]c12; C20 diacid = O=C(O)CCCCCCCCCCCCCCCCCCC(=O)*; d(γGlu) = O=C(O)[C@@H](CCC(=O)[*:2])N[*:1]; C18 diacid = O=C(O)CCCCCCCCCCCCCCCCC(=O)*; γGlu = O=C(O)[C@H](CCC(=O)[*:2])N[*:1]; 2Nal = N[C@@H](Cc1ccc2ccccc2c1)C(=O)O; Palmitoyl = CCCCCCCCCCCCCCCC(=O)*; 3Pal = N[C@@H](Cc1cccnc1)C(=O)O; Nle = CCCC[C@H](N)C(=O)O; ACPC = not defined here; AEEA = NCCOCCOCC(=O)O; βAla = NCCC(=O)O; Sar = CNCC(=O)O
Answer format: numeric, nM implied, no suffix.

# Binder, hIP1 GRPR EC50 (nM)
records = [
    ("{C18 diacid}-[γGlu][AEEA][AEEA]GNH[Trp(7-F)]AV[dA]HL[Nle][Sar]-NH2 (SMILES CCCC[C@H](NC(=O)[C@H](CC(C)C)NC(=O)[C@H](Cc1c[nH]cn1)NC(=O)[C@@H](C)NC(=O)[C@@H](NC(=O)[C@H](C)NC(=O)[C@H](Cc1c[nH]c2c(F)cccc12)NC(=O)[C@H](Cc1c[nH]cn1)NC(=O)[C@H](CC(N)=O)NC(=O)CNC(=O)COCCOCCNC(=O)COCCOCCNC(=O)CC[C@H](NC(=O)CCCCCCCCCCCCCCCCC(=O)O)C(=O)O)C(C)C)C(=O)N(C)CC(N)=O) [Peptide 102]", 181),
    ("{C18 diacid}-[γGlu][AEEA][AEEA]GNH[2Nal]AV[dA]HL[Nle]-NH2 (SMILES CCCC[C@H](NC(=O)[C@H](CC(C)C)NC(=O)[C@H](Cc1c[nH]cn1)NC(=O)[C@@H](C)NC(=O)[C@@H](NC(=O)[C@H](C)NC(=O)[C@H](Cc1ccc2ccccc2c1)NC(=O)[C@H](Cc1c[nH]cn1)NC(=O)[C@H](CC(N)=O)NC(=O)CNC(=O)COCCOCCNC(=O)COCCOCCNC(=O)CC[C@H](NC(=O)CCCCCCCCCCCCCCCCC(=O)O)C(=O)O)C(C)C)C(N)=O) [Peptide 105]", 232),
    ("Palmitoyl-[d(γGlu)][AEEA][AEEA]GNHWAV[dA][3Pal]L[Nle]-NH2 (SMILES CCCCCCCCCCCCCCCC(=O)N[C@H](CCC(=O)NCCOCCOCC(=O)NCCOCCOCC(=O)NCC(=O)N[C@@H](CC(N)=O)C(=O)N[C@@H](Cc1c[nH]cn1)C(=O)N[C@@H](Cc1c[nH]c2ccccc12)C(=O)N[C@@H](C)C(=O)N[C@H](C(=O)N[C@H](C)C(=O)N[C@@H](Cc1cccnc1)C(=O)N[C@@H](CC(C)C)C(=O)N[C@@H](CCCC)C(N)=O)C(C)C)C(=O)O) [Peptide 17]", 3),
    ("{C18 diacid}-[d(γGlu)][AEEA][AEEA]GRHWAV[dA]HL[Nle]-NH2 (SMILES CCCC[C@H](NC(=O)[C@H](CC(C)C)NC(=O)[C@H](Cc1c[nH]cn1)NC(=O)[C@@H](C)NC(=O)[C@@H](NC(=O)[C@H](C)NC(=O)[C@H](Cc1c[nH]c2ccccc12)NC(=O)[C@H](Cc1c[nH]cn1)NC(=O)[C@H](CCCNC(=N)N)NC(=O)CNC(=O)COCCOCCNC(=O)COCCOCCNC(=O)CC[C@@H](NC(=O)CCCCCCCCCCCCCCCCC(=O)O)C(=O)O)C(C)C)C(N)=O) [Peptide 61]", 8.25),
    ("{C20 diacid}-[γGlu][AEEA][AEEA]GRH[Trp(7-Me)]AV[βAla]HL[Nle]-NH2 (SMILES CCCC[C@H](NC(=O)[C@H](CC(C)C)NC(=O)[C@H](Cc1c[nH]cn1)NC(=O)CCNC(=O)[C@@H](NC(=O)[C@H](C)NC(=O)[C@H](Cc1c[nH]c2c(C)cccc12)NC(=O)[C@H](Cc1c[nH]cn1)NC(=O)[C@H](CCCNC(=N)N)NC(=O)CNC(=O)COCCOCCNC(=O)COCCOCCNC(=O)CC[C@H](NC(=O)CCCCCCCCCCCCCCCCCCC(=O)O)C(=O)O)C(C)C)C(N)=O) [Peptide 242]", 3.9),
]

// query Quick one: give measured hIP1 GRPR EC50 for {C20 diacid}-[γGlu][γGlu][AEEA][AEEA]GQHWAV[ACPC]HL[Nle]-NH2 (reading uncertain) [Peptide 271]
// result 10.2

// query Quick one: give measured hIP1 GRPR EC50 for {C18 diacid}-[γGlu][AEEA][AEEA]GAH[2Nal]AV[dA]HL[Nle]-NH2 (SMILES CCCC[C@H](NC(=O)[C@H](CC(C)C)NC(=O)[C@H](Cc1c[nH]cn1)NC(=O)[C@@H](C)NC(=O)[C@@H](NC(=O)[C@H](C)NC(=O)[C@H](Cc1ccc2ccccc2c1)NC(=O)[C@H](Cc1c[nH]cn1)NC(=O)[C@H](C)NC(=O)CNC(=O)COCCOCCNC(=O)COCCOCCNC(=O)CC[C@H](NC(=O)CCCCCCCCCCCCCCCCC(=O)O)C(=O)O)C(C)C)C(N)=O) [Peptide 126]
// result 92.5
